// IC50 lookup, one value per entry
# TESTED ON: PDK1 (Homo sapiens (Human))
# Sequence (O15530 51-359): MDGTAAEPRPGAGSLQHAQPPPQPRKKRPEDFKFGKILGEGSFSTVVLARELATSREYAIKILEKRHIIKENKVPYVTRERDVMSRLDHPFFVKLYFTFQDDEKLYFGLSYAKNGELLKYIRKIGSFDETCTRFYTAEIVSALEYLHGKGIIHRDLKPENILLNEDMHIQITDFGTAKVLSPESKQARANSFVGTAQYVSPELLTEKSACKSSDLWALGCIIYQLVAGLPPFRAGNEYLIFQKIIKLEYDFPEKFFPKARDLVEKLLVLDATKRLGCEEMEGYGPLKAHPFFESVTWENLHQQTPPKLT
# TEST METHOD NOTES: PDK1 kinase assay (coupled PDK1/AKT/FAM-crosstide assay, IMAP fluorescence polarization)
# Assay type: biochemical
# RUN PARAMETERS: inhibition of PDK1 in vitro
METRIC NAME: IC50

CCCc1n[nH]c2ncc(-c3ccc(CNc4ncc(C#N)cc4C(=O)N[C@@H](C)c4ccc(F)cc4)cc3)cc12 :: < 100 nM
CNC(=O)c1cc(S(=O)(=O)NCCN)cnc1NCc1ccc(-c2ccc3ncnc(N)c3c2)s1 :: > 5000 nM
C[C@H](NC(=O)c1cc(C#N)cnc1NCc1ccc(-c2cnc(N)c(NCCN)n2)cc1)c1ccc(F)cc1 :: < 100 nM
O=C(NCc1ccc(F)c(F)c1)c1cc(C(F)(F)F)cnc1NCc1ccc(-c2cnc(NCCO)cn2)cc1 :: 100 to 1000 nM
C[C@H](NC(=O)c1cc(C#N)cnc1NCc1ccc(-c2cnc(N)c(C(=O)NCCN3CCN(C)CC3)n2)cc1)c1ccc(F)cc1 :: < 100 nM
C[C@H](NC(=O)c1cc(C#N)cnc1NCc1ccc(-c2cnc3[nH]nc(CN)c3c2)cc1)c1ccc(F)cc1 :: < 100 nM
C[C@H](NC(=O)c1cc(C#N)cnc1NCc1ccc(-c2cnc3[nH]nc(N)c3c2)nc1)c1ccc(F)cc1 :: < 100 nM
C[C@H](NC(=O)c1cc(C#N)cnc1NCc1ccc(-c2cnc(N)c(CCCCN)n2)cc1)c1ccc(F)cc1 :: < 100 nM
Nc1ncnn2c(-c3ccc(CNc4ncc(C(F)(F)F)cc4C(=O)NCc4ccc(F)c(F)c4)cc3)ccc12 :: 100 to 1000 nM
Nc1ncnc2[nH]cc(-c3ccc(CNc4ncc(C(F)(F)F)cc4C(=O)Nc4ccc(F)cc4)cc3)c12 :: < 100 nM
C[C@H](NC(=O)c1nc(C#N)cnc1NCc1ccc(-c2cnc(N)c(NCC(O)CO)n2)cc1)c1ccc(F)c(F)c1 (stereo partly shown) :: < 100 nM
C[C@H](NC(=O)c1cc(C#N)cnc1NCc1ccc(-c2cnc3[nH]cnc3c2)cc1)c1ccc(F)cc1 :: < 100 nM
Nc1ncnc2c1c(-c1ccc(CNc3ncc(C(F)(F)F)cc3C(=O)Nc3ccc(F)cc3)cc1)cn2CCO :: < 100 nM
C[C@H](NC(=O)c1cccnc1NCc1ncc(-c2ccc3ncc4ncn(C)c4c3c2)s1)c1ccc(F)c(F)c1 :: < 100 nM
Nc1n[nH]c2ncc(-c3ccc(CNc4ncc(C(F)(F)F)cc4C(=O)NC[C@@H]4CCCO4)cc3)cc12 :: 100 to 1000 nM
C[C@H](NC(=O)c1cc(C#N)cnc1NCc1ccc(-c2cnc(N)c(C(=O)O)n2)cc1)c1ccc(F)cc1 :: < 100 nM
C[C@H](NC(=O)c1cc(C(F)(F)F)cnc1NCc1ccc(-c2cnc(N)cn2)cc1)c1ccc(F)c(F)c1 :: < 100 nM
C[C@H](NC(=O)c1nc(C#N)cnc1NCc1ccc(-c2cnc(N)c(CC3CCNC3)n2)cc1)c1ccc(F)c(F)c1 (stereo partly shown) :: < 100 nM
O=C(Nc1ccc(F)cc1)c1cc(C(F)(F)F)cnc1NCc1ccc(-c2cnc3[nH]ncc3c2)cc1 :: < 100 nM
O=C(NCc1ccc(F)c(F)c1)c1cccnc1NCc1ccc(-c2cnc3[nH]ccc3c2)nc1 :: < 100 nM
C[C@@H](NC(=O)c1cc(C(F)(F)F)cnc1NCc1ccc(-c2cnc3[nH]nc(N)c3c2)cc1)c1ccc(Br)cc1 :: > 5000 nM
C[C@H](NC(=O)c1cc(C(F)(F)F)cnc1NCc1ccc(-c2cnc3[nH]nc(N)c3c2)cc1)c1ccc(Cl)cc1 :: < 100 nM
Nc1ncc(-c2ccc(CNc3ncc(C(F)(F)F)cc3C(=O)Nc3ccc(F)cc3)cc2)nc1O[C@@H]1CCC[C@H]1N :: < 100 nM
C[C@H](NC(=O)c1cc(C#N)cnc1NCc1ccc(-c2cnc(N)c(C(=O)O)c2)cc1)c1ccc(F)cc1 :: < 100 nM
C[C@H](NC(=O)c1cccnc1Nc1ccc(-c2ccc3ncnc(N)c3c2)s1)c1ccc(F)c(F)c1 :: > 5000 nM
Nc1ncc(-c2ccc(CNc3ncc(C(F)(F)F)cc3C(=O)Nc3ccc(F)cc3)cc2)nc1N1CCC[C@@H](N)C1 :: < 100 nM
Nc1cnc(-c2ccc(CNc3nccc4ncn(Cc5ccc(F)c(F)c5)c(=O)c34)cc2)cn1 :: < 100 nM
Nc1n[nH]c2ncc(-c3ccc(CNc4ncc(C(F)(F)F)cc4C(=O)N[C@@H](CO)c4ccc(Br)cc4)cc3)cc12 :: > 5000 nM

Where do these numbers come from? They come from patent US10030016B2.
